B1: glmS ribozyme (parent)
chain: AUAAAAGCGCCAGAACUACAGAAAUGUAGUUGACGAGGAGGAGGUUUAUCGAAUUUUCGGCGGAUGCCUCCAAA

Variants of: B1
Assay: self-cleavage kobs at 40 uM GlcN6P; higher = faster cleavage; RNA array
Details: with glucosamine-6-phosphate
This sample holds only a part of the variants without activity.
The entries below are paired with their reported self-cleavage kobs at 40 uM GlcN6P.

SEQUENCE | self-cleavage kobs at 40 uM GlcN6P
AUAAAAGCGCCAGAACUACAGAAAUGUAGUUGACGAGGAGGAGGUUUAUCGAAUAUUCGGCGGAUGCCUCCAAA [U55A] | 0.00134 s⁻¹

# input Item AUAAAAGCGCUAUAACUACAGAAAUGUAGUUGACGAGGAGGAGGUUUAUCGAAUUUCCGGCCGAUGACUCCAAA [C11U G13U U57C G62C C67A] has what recorded self-cleavage kobs at 40 uM GlcN6P?
# output < 1e-05 s⁻¹

# input Item AUAAAAGCGCGAGAUCUACAGAAAUGUAGUUGAGGAGGUGGAGGUUUGUCGAAUUUUCGGCGGAUGCCUCCAAA [C11G A15U C34G A39U A48G] has what recorded self-cleavage kobs at 40 uM GlcN6P?
# output < 1e-05 s⁻¹

# input Item AUAAAAGCGCCAGAACUACAGAAAUGUAGUUGACAAGGAGGAGGUUUAUCGAAUUUUCGGCGGGUGCCUGCAAA [G35A A64G C70G] has what recorded self-cleavage kobs at 40 uM GlcN6P?
# output < 1e-05 s⁻¹

# input Item AUAAAAGCGCCAGAACUACAGAAAUGUAGUUGACGAGGAGGAGGUUUAUGGAAUUUUCAGCGGAUGCCUCCAAA [C50G G59A] has what recorded self-cleavage kobs at 40 uM GlcN6P?
# output 4.42e-05 s⁻¹

# input Item AUAAAAGCGCCAGAACUACAGAAAUGUAGUUGACGAGUAGGAGGUUUAUCGCAUUUUCGGCGGAUGCCUCCAAA [G38U A52C] has what recorded self-cleavage kobs at 40 uM GlcN6P?
# output < 1e-05 s⁻¹

# input Item AUAAAAGCGUCAGAACUACAGAAAUGUAGUUGACCAGGAGGAGGUUUAUCGAAUUUUCGGCGGAUGCCUCCAAA [C10U G35C] has what recorded self-cleavage kobs at 40 uM GlcN6P?
# output < 1e-05 s⁻¹

# input Item AUAAAAGCGACAGCACUACAGAAAUGUAGUUGACGAGGAGGAGGCUUAUCGAAUUUUCGGCGGAUGCUUCCAAA [C10A A14C U45C C68U] has what recorded self-cleavage kobs at 40 uM GlcN6P?
# output < 1e-05 s⁻¹
